- recorded-conditions: in dichloromethane, 303.99 K
endpoint-label: solubility (mole fraction)

Exercise: Suppose we examine the compound O=[N+]([O-])/N=C1\NCCN1Cc1ccc(Cl)nc1 ; what solubility (mole fraction) value has been reported?
Key: 0.0189

----------
- recorded-conditions: in methanol, 293.79 K
endpoint-label: solubility (mole fraction)
Answer field: number only, no words.

Exercise: Suppose we examine the compound O=[N+]([O-])/N=C1\NCCN1Cc1ccc(Cl)nc1 ; what solubility (mole fraction) value has been reported?
Key: 0.00102

----------
- recorded-conditions: in dichloromethane, 311.66 K
endpoint-label: solubility (mole fraction)
Answer field: number only, no words.

Exercise: Suppose we examine the molecule O=[N+]([O-])/N=C1\NCCN1Cc1ccc(Cl)nc1 ; what solubility (mole fraction) value has been reported?
Key: 0.0236
